# TARGET_OR_SYSTEM: recombinant NS3 protease with the NS4A peptide cofactor … (molar ratio enzyme:cofactor 1:100) (hepatitis C virus genotype 1b)
# ASSAY_NAME: cell-based or functional assay
Where no end group is shown, it is not given here. [ ]: non-standard residue; d: D form. P1(R14 Et, 1R,2R) = not defined here; P1(R14 Et, 1S,2S) = not defined here; Chg = N[C@H](C(=O)O)C1CCCCC1; Ac3c = NC1(C(=O)O)CC1
Record form. Attribute: log10 of IC50. Fill in for each entry.
Scale type: logarithmic (base 10). Underlying IC50 unit: nM.

Param item = Ac-[Chg]VPX (not fully specified (residue 3); printed as Ac-Chg-Val-Pro(O-Bn)-P1) [Compound 228 (Table 2): Ac-Chg-Val-Pro(O-Bn)-P1, P1 drawn] ; retrieve measured log10 of IC50.
4.54

How about this binder: Ac-[Chg]VP[Ac3c] (not fully specified (residue 3); printed as Ac-Chg-Val-Pro(1-NpCH2O)-Acca) [Compound 227 (Table 2): Ac-Chg-Val-Pro(1-NpCH2O)-Acca]
3.48

# repeat for Ac-[Chg]VP[P1(R14 Et, 1R,2R)] (not fully specified (residue 3); reading uncertain) [Compound 513 (Table 5): Ac-Chg-Val-Pro(1-NpCH2O)-P1(R14 Et; 1R, 2R)]
3.22

Now this one: Ac-[Chg]VP[Ac3c] (not fully specified (residue 3); printed as Ac-Chg-Val-Pro(R13)-Acca) [Compound 257 (Table 2): Ac-Chg-Val-Pro(R13)-Acca, R13 drawn]
3.34

Note, next up: Ac-[Chg][Chg]P[P1(R14 Et, 1S,2S)] (not fully specified (residue 3); reading uncertain) [Compound 506 (Table 5): Ac-Chg-Chg-Pro(1-NpCH2O)-P1(R14 Et; 1S, 2S)]
3.69

meta.source: patent US6767991
